System: OVCAR-8 ovarian
Experiment: NCI-60 one-dose screen, 48 h
Details: 10 µM unless noted
Procedure: Growth inhibition of the OVCAR-8 human tumor cell line is measured as a screen for anti-cancer activity. Cells are grown in 96 well plates and exposed to the test compound for 48 hours. Compounds are tested at a single concentration, which is 10^-5 M for most compounds. The reported endpoint is percent growth (GI% or GIPRCNT), where numbers from 0 - 100% represent growth inhibition, and numbers from -100% - 0 represent cell death. For example, a value of 40 represents 60% growth inhibition. […]
The panel holds about 83,000 compounds, 20% with a hit somewhere; the sample as a whole holds those more often. The source made the active and inactive calls. Rule for the calls: active = growth percent below 10; inactive = the rest.
// one of 1 (active), -1 (inactive), no free text

[[record]]
molecule = "O=C(/C=C\\c1ccccc1)N1c2ccccc2CC1c1c[nH]c2ccccc12 (stereo not drawn)"
label = -1

[[record]]
molecule = "O=C(/C=C/C=C/c1ccccc1)c1ccco1"
label = -1

[[record]]
molecule = "Oc1c(Br)c(Br)c(O)c(Br)c1Br"
label = -1

[[record]]
molecule = "N#CSCc1c(Cl)cccc1Cl"
label = -1

[[record]]
molecule = "CC(C)c1ccc2nc3ccc(C(=O)NCCN4CCN(c5ccccc5)CC4)cn3c(=O)c2c1"
label = -1

[[record]]
molecule = "CCC(CC)COC(=O)c1ccc(O)c(O)c1"
label = -1


Prompt line: Please let me know the test result on file for `CCOC(=O)/C(=C\c1ccc(-c2ccccc2)cc1)C(C)=O` .
Response line: -1

Prompt line: Moving on to the next molecule: `COC(=O)c1nc(=S)[nH]c(C(=O)OC)c1C(=O)c1ccc2ccccc2c1`
Response line: -1

Prompt line: Follow-up item: `N#CSCc1ccc(CSC#N)c(Cl)c1`
Response line: -1

Prompt line: Next entry: COC(=O)[C@@]12OC[C@]34[C@H]([C@@H](O)[C@@H]1O)[C@@]1(C)[C@H](O)C(=O)C=C(C)[C@@H]1C[C@H]3OC(=O)C(OC(C)=O)[C@@H]24 (stereo partly drawn)
Response line: 1

Prompt line: Next: `O=C(Nc1ccccc1)c1cc(Cl)ccc1O`
Response line: -1

Prompt line: Please give the result for `CC(C)(C)CC(C)(C)c1ccc(OCCSC(=N)N)cc1` too.
Response line: -1

* * *

system: LOX IMVI melanoma; assay: NCI-60 one-dose screen, 48 h (100 = growth as untreated, 0 = no growth, -100 = all killed); conditions: 10 µM unless noted
Compounds without any hit were thinned out: in the full panel of roughly 83,000, 20% have a hit.
Response key: t means growth >= 70%; f means growth < 70%.

[[record]]
compound = "Cc1c2ccccc2c(C)c2c1ccc1ccccc12"
label = "f"

[[record]]
compound = "Nc1ccc(SSc2ccc(N)cc2)cc1"
label = "t"

[[record]]
compound = "CN(C)c1ccc(/C=N/N=C(\\C#N)[S][Sn]([Cl])([c]2ccccc2)[c]2ccccc2)cc1"
label = "f"

[[record]]
compound = "CNc1ccc(N)cc1"
label = "t"

[[record]]
compound = "CC(C)(C)CC(C)(C)c1ccc(OCCSC(=N)N)cc1"
label = "f"

[[record]]
compound = "CCN(CC)CCOc1ccc(-c2nc3cc(Cl)ccc3s2)cc1"
label = "f"

[[record]]
compound = "Cc1cc(C(C)(CC(C)C)c2ccc(O)c(C)c2)ccc1O"
label = "t"

[[record]]
compound = "CN1c2ccccc2C(C)(C)C12C=Cc1cc(O)ccc1O2 (stereo not given)"
label = "f"

[[record]]
compound = "COc1cc(/C=C(/C)C[N+](=O)[O-])ccc1O"
label = "f"

[[record]]
compound = "O=C1C2=C(Nc3cc([N+](=O)[O-])ccc3N2)OC1c1c2ccccc2cc2ccccc12 (stereo not given)"
label = "f"


Prompt line: Does growth meet or surpass 70% for N#CC1C(=O)SC2c3ccccc3C(=O)c3ccccc3C12 (stereo not given) ?
Response line: t

Prompt line: Also need `O=C1NC(=O)/C(=C/C=C/c2ccccc2)S1` , thanks.
Response line: f
